Test system Myeloid Cell Leukemia 1(Mcl-1) (Homo sapiens, UniProt Q07820), pKi listed for each of the molecules.
Worth noting: pKi values are minus log10 of concentrations stated in mol/L.

Take a look at these entries with their results.
| Molecule | Target desc | Obs value |
| --- | --- | --- |
| C[C@@H]1[C@@H](C)C/C=C(\F)[C@H](C(=O)N(C)CC2COCCO2)N2CCC[C@H]2CN2C[C@@]3(CCCc4cc(Cl)ccc43)COc3ccc(cc32)C(=O)NS1(=O)=O (single isomer, unassigned) [Compound 54] | Myeloid Cell Leukemia 1(Mcl-1) (Homo sapiens, UniProt Q07820) | 10.38 |
| C[C@@H]1[C@@H](C)C/C=C(\F)[C@H](C(=O)N(C)C2CCOC2)N2CCC[C@H]2CN2C[C@@]3(CCCc4cc(Cl)ccc43)COc3ccc(cc32)C(=O)NS1(=O)=O (single isomer, unassigned) [Compound 68] | Myeloid Cell Leukemia 1(Mcl-1) (Homo sapiens, UniProt Q07820) | 10.39 |
| C[C@@H]1[C@@H](C)C/C=C(\F)[C@H](C(=O)N(C)Cc2ccnn2C)N2CCC[C@H]2CN2C[C@@]3(CCCc4cc(Cl)ccc43)COc3ccc(cc32)C(=O)NS1(=O)=O [Compound 34] | Myeloid Cell Leukemia 1(Mcl-1) (Homo sapiens, UniProt Q07820) | 10.11 |
| C[C@@H]1[C@@H](C)C/C=C(\F)[C@H](C(=O)N(C)CC2CCOC2)N2CCC[C@H]2CN2C[C@@]3(CCCc4cc(Cl)ccc43)COc3ccc(cc32)C(=O)NS1(=O)=O (single isomer, unassigned) [Compound 57] | Myeloid Cell Leukemia 1(Mcl-1) (Homo sapiens, UniProt Q07820) | 10.29 |
| C[C@@H]1[C@@H](C)C/C=C(\F)[C@H](C(=O)N(C)Cc2nnnn2C)N2CCC[C@H]2CN2C[C@@]3(CCCc4cc(Cl)ccc43)COc3ccc(cc32)C(=O)NS1(=O)=O [Compound 66] | Myeloid Cell Leukemia 1(Mcl-1) (Homo sapiens, UniProt Q07820) | 10.60 |
| C[C@@H]1[C@@H](C)C/C=C(\F)[C@H](C(=O)N(C)CC2COCCO2)N2CCC[C@H]2CN2C[C@@]3(CCCc4cc(Cl)ccc43)COc3ccc(cc32)C(=O)NS1(=O)=O (single isomer, unassigned) [Compound 55] | Myeloid Cell Leukemia 1(Mcl-1) (Homo sapiens, UniProt Q07820) | 10.43 |
| COCCN(CCOC)C(=O)[C@H]1/C(F)=C/C[C@H](C)CS(=O)(=O)NC(=O)c2ccc3c(c2)N(C[C@@H]2CCCN21)C[C@@]1(CCCc2cc(Cl)ccc21)CO3 [Compound 88] | Myeloid Cell Leukemia 1(Mcl-1) (Homo sapiens, UniProt Q07820) | 10.54 |
| C[C@@H]1[C@@H](C)C/C=C(\F)[C@H](C(=O)N(C)CCN2CC(F)(F)C2)N2CCC[C@H]2CN2C[C@@]3(CCCc4cc(Cl)ccc43)COc3ccc(cc32)C(=O)NS1(=O)=O [Compound 87] | Myeloid Cell Leukemia 1(Mcl-1) (Homo sapiens, UniProt Q07820) | 10.15 |

# pKi measured on Myeloid Cell Leukemia 1(Mcl-1) (Homo sapiens, UniProt Q07820) for item C[C@@H]1[C@@H](C)C/C=C(\F)[C@H](C(=O)N2CCC(F)(F)CC2)N2CCC[C@H]2CN2C[C@@]3(CCCc4cc(Cl)ccc43)COc3ccc(cc32)C(=O)NS1(=O)=O [Compound 43] = 9.36

# pKi measured on Myeloid Cell Leukemia 1(Mcl-1) (Homo sapiens, UniProt Q07820) for item COC1(C(F)(F)F)CN(C(=O)[C@H]2/C(F)=C/C[C@H](C)[C@@H](C)S(=O)(=O)NC(=O)c3ccc4c(c3)N(C[C@@H]3CCCN32)C[C@@]2(CCCc3cc(Cl)ccc32)CO4)C1 [Compound 42] = 9.43

# pKi measured on Myeloid Cell Leukemia 1(Mcl-1) (Homo sapiens, UniProt Q07820) for item C[C@@H]1[C@@H](C)C/C=C(\F)[C@H](C(=O)N(C)CCOc2cncnc2)N2CCC[C@H]2CN2C[C@@]3(CCCc4cc(Cl)ccc43)COc3ccc(cc32)C(=O)NS1(=O)=O [Compound 41] = 10.47

# pKi measured on Myeloid Cell Leukemia 1(Mcl-1) (Homo sapiens, UniProt Q07820) for item C[C@@H]1[C@@H](C)C/C=C(\F)[C@H](C(=O)N2CCOCC2)N2CCC[C@H]2CN2C[C@@]3(CCCc4cc(Cl)ccc43)COc3ccc(cc32)C(=O)NS1(=O)=O [Compound 8] = 10.13

# pKi measured on Myeloid Cell Leukemia 1(Mcl-1) (Homo sapiens, UniProt Q07820) for item C[C@@H]1[C@@H](C)C/C=C(\F)[C@H](C(=O)N2CCOC[C@@H]2C)N2CCC[C@H]2CN2C[C@@]3(CCCc4cc(Cl)ccc43)COc3ccc(cc32)C(=O)NS1(=O)=O [Compound 12] = 10.16

# pKi measured on Myeloid Cell Leukemia 1(Mcl-1) (Homo sapiens, UniProt Q07820) for item C[C@@H]1[C@@H](C)C/C=C(\F)[C@H](C(=O)N(C)CC2CCCOC2)N2CCC[C@H]2CN2C[C@@]3(CCCc4cc(Cl)ccc43)COc3ccc(cc32)C(=O)NS1(=O)=O (single isomer, unassigned) [Compound 64] = 10.08

# pKi measured on Myeloid Cell Leukemia 1(Mcl-1) (Homo sapiens, UniProt Q07820) for item C[C@@H]1[C@@H](C)C/C=C(\F)[C@H](C(=O)N(C)CCC2CCOCC2)N2CCC[C@H]2CN2C[C@@]3(CCCc4cc(Cl)ccc43)COc3ccc(cc32)C(=O)NS1(=O)=O (single isomer, unassigned) [Compound 2] = 10.05

# pKi measured on Myeloid Cell Leukemia 1(Mcl-1) (Homo sapiens, UniProt Q07820) for item C[C@@H]1[C@@H](C)C/C=C(\F)[C@H](C(=O)N2CCCC3(CCOC3)C2)N2CCC[C@H]2CN2C[C@@]3(CCCc4cc(Cl)ccc43)COc3ccc(cc32)C(=O)NS1(=O)=O (single isomer, unassigned) [Compound 14] = 9.90

====

// reported AC50 for each item listed
- Test system: MOLP-8 human multiple myeloma cell line
- Assay comment: Caspase-Glo 3/7 apoptosis induction assay in MOLP-8 cells
- Format: cell-based
- Condition info: Homo sapiens, MOLP-8, 2 h, caspase-3/7 activity, 2 hours at 37° C.; averaged over all runs on all batches; read-out: MOLP8 AC50
Dear colleague, please return just the value in µM, with no unit written.

Take a look at these entries with their results.
| Mol smiles | Quantity measured | Obs value |
| --- | --- | --- |
| C[C@@H]1[C@@H](C)C/C=C(\F)[C@H](C(=O)N(C)CCOC2CCOCC2)N2CCC[C@H]2CN2C[C@@]3(CCCc4cc(Cl)ccc43)COc3ccc(cc32)C(=O)NS1(=O)=O | AC50 | 0.0901 |
| C[C@@H]1[C@@H](C)C/C=C(\F)[C@H](C(=O)N(C)C)N2CCC[C@H]2CN2C[C@@]3(CCCc4cc(Cl)ccc43)COc3ccc(cc32)C(=O)NS1(=O)=O | AC50 | 0.0992 |

Now look at this one.
# AC50 measured on MOLP-8 human multiple myeloma cell line for item C[C@@H]1[C@@H](C)C/C=C(\F)[C@H](C(=O)N(C)Cc2nnnn2C)N2CCC[C@H]2CN2C[C@@]3(CCCc4cc(Cl)ccc43)COc3ccc(cc32)C(=O)NS1(=O)=O = 0.357

====

Test system UniProt Q07820, pKi listed for each of the compounds.
Worth noting: pKi values are minus log10 of concentrations stated in mol/L.

| Compound | Target desc | Obs value |
| --- | --- | --- |
| C[C@@H]1[C@@H](C)C/C=C(\F)[C@H](C(=O)N(C)CCN2CCOCC2)N2CCC[C@H]2CN2C[C@@]3(CCCc4cc(Cl)ccc43)COc3ccc(cc32)C(=O)NS1(=O)=O | UniProt Q07820 | 10.57 |
| COCCN(CC1CCOCC1)C(=O)[C@H]1/C(F)=C/C[C@H](C)[C@@H](C)S(=O)(=O)NC(=O)c2ccc3c(c2)N(C[C@@H]2CCCN21)C[C@@]1(CCCc2cc(Cl)ccc21)CO3 | UniProt Q07820 | 10.22 |
| COCCN(CCOC)C(=O)[C@H]1/C(F)=C/C[C@H](C)[C@@H](C)S(=O)(=O)NC(=O)c2cc3c(cc2F)OC[C@]2(CCCc4cc(Cl)ccc42)CN3C[C@@H]2CCCN21 | UniProt Q07820 | 10.30 |
| C[C@@H]1[C@@H](C)C/C=C(\F)[C@H](C(=O)N2CCC(CC#N)CC2)N2CCC[C@H]2CN2C[C@@]3(CCCc4cc(Cl)ccc43)COc3ccc(cc32)C(=O)NS1(=O)=O | UniProt Q07820 | 10.04 |
| C[C@@H]1[C@@H](C)C/C=C(\F)[C@H](C(=O)N(C)C2CCCOC2)N2CCC[C@H]2CN2C[C@@]3(CCCc4cc(Cl)ccc43)COc3ccc(cc32)C(=O)NS1(=O)=O (single isomer, unassigned) [Compound 62] | UniProt Q07820 | 10.24 |

# pKi measured on UniProt Q07820 for item C[C@@H]1[C@@H](C)C/C=C(\F)[C@H](C(=O)N(C)Cc2ncnn2C)N2CCC[C@H]2CN2C[C@@]3(CCCc4cc(Cl)ccc43)COc3ccc(cc32)C(=O)NS1(=O)=O = 10.17

# pKi measured on UniProt Q07820 for item C[C@@H]1[C@@H](C)C/C=C(\F)[C@H](C(=O)N2CC[C@@H](C#N)C2)N2CCC[C@H]2CN2C[C@@]3(CCCc4cc(Cl)ccc43)COc3ccc(cc32)C(=O)NS1(=O)=O = 10.19

# pKi measured on UniProt Q07820 for item C[C@@H]1[C@@H](C)C/C=C(\F)[C@H](C(=O)N2CCCC3(CC3)C2)N2CCC[C@H]2CN2C[C@@]3(CCCc4cc(Cl)ccc43)COc3ccc(cc32)C(=O)NS1(=O)=O (single isomer, unassigned) = 9.35

# pKi measured on UniProt Q07820 for item C[C@@H]1CN(C(=O)[C@H]2/C(F)=C/C[C@H](C)[C@@H](C)S(=O)(=O)NC(=O)c3ccc4c(c3)N(C[C@@H]3CCCN32)C[C@@]2(CCCc3cc(Cl)ccc32)CO4)CCN1C = 10.27

# pKi measured on UniProt Q07820 for item C[C@@H]1[C@@H](C)C/C=C(\F)[C@H](C(=O)N(C)C2CCOC2)N2CCC[C@H]2CN2C[C@@]3(CCCc4cc(Cl)ccc43)COc3ccc(cc32)C(=O)NS1(=O)=O (single isomer, unassigned) [Compound 69] = 10.31

# pKi measured on UniProt Q07820 for item CCS(=O)(=O)CCN(C)C(=O)[C@H]1/C(F)=C/C[C@H](C)[C@@H](C)S(=O)(=O)NC(=O)c2ccc3c(c2)N(C[C@@H]2CCCN21)C[C@@]1(CCCc2cc(Cl)ccc21)CO3 = 10.60

# pKi measured on UniProt Q07820 for item C[C@@H]1[C@@H](C)C/C=C(\F)[C@H](C(=O)N2CCOC(C(F)(F)F)C2)N2CCC[C@H]2CN2C[C@@]3(CCCc4cc(Cl)ccc43)COc3ccc(cc32)C(=O)NS1(=O)=O (single isomer, unassigned) = 9.59

# pKi measured on UniProt Q07820 for item C[C@@H]1[C@@H](C)C/C=C(\F)[C@H](C(=O)N(C)CCO)N2CCC[C@H]2CN2C[C@@]3(CCCc4cc(Cl)ccc43)COc3ccc(cc32)C(=O)NS1(=O)=O = 10.27

# pKi measured on UniProt Q07820 for item C[C@@H]1[C@@H](C)C/C=C(\F)[C@H](C(=O)N(C)C2CCCOC2)N2CCC[C@H]2CN2C[C@@]3(CCCc4cc(Cl)ccc43)COc3ccc(cc32)C(=O)NS1(=O)=O (single isomer, unassigned) [Compound 63] = 10.39

# pKi measured on UniProt Q07820 for item COCCCN(C)C(=O)[C@H]1/C(F)=C/C[C@H](C)[C@@H](C)S(=O)(=O)NC(=O)c2ccc3c(c2)N(C[C@@H]2CCCN21)C[C@@]1(CCCc2cc(Cl)ccc21)CO3 (single isomer, unassigned) = 10.40

# pKi measured on UniProt Q07820 for item C[C@@H]1[C@@H](C)C/C=C(\F)[C@H](C(=O)N(C)CC(F)(F)F)N2CCC[C@H]2CN2C[C@@]3(CCCc4cc(Cl)ccc43)COc3ccc(cc32)C(=O)NS1(=O)=O = 9.42

# pKi measured on UniProt Q07820 for item C[C@@H]1[C@@H](C)C/C=C(\F)[C@H](C(=O)N(C)c2ccccc2)N2CCC[C@H]2CN2C[C@@]3(CCCc4cc(Cl)ccc43)COc3ccc(cc32)C(=O)NS1(=O)=O = 9.33

# pKi measured on UniProt Q07820 for item C[C@@H]1[C@@H](C)C/C=C(\F)[C@H](C(=O)N(C)CCN2CCCOCC2)N2CCC[C@H]2CN2C[C@@]3(CCCc4cc(Cl)ccc43)COc3ccc(cc32)C(=O)NS1(=O)=O = 10.66
